So I've got a bunch of molecules here, and I need their partition coefficient iso-octane / distilled water values.
Assay: shake-flask (equal volumes, stirred); both phases assayed by HPLC
Conditions: 32 °C
Numbers only, in concentration ratio.

INSERT INTO measurements (query_smiles, scale_unit, measurement) VALUES
  ('CCCCCCCCCCN1CCN(C)C1=O', 'concentration ratio', 756);

Hey, quick one: what's partition coefficient iso-octane / distilled water for each of these?
1. CCCCCCCCCCCCN1CCCCCC1=O
2. CCCCCCCN1CCN(C)C1=O
3. CCCCCCCCCCCCN1CCN(C)C1=O

Key:
[2004, 24, 7350]
